- systemTested: SUMO (Homo sapiens, UniProt Q9UBT2)
- Sequence (Q9UBT2 whole entry): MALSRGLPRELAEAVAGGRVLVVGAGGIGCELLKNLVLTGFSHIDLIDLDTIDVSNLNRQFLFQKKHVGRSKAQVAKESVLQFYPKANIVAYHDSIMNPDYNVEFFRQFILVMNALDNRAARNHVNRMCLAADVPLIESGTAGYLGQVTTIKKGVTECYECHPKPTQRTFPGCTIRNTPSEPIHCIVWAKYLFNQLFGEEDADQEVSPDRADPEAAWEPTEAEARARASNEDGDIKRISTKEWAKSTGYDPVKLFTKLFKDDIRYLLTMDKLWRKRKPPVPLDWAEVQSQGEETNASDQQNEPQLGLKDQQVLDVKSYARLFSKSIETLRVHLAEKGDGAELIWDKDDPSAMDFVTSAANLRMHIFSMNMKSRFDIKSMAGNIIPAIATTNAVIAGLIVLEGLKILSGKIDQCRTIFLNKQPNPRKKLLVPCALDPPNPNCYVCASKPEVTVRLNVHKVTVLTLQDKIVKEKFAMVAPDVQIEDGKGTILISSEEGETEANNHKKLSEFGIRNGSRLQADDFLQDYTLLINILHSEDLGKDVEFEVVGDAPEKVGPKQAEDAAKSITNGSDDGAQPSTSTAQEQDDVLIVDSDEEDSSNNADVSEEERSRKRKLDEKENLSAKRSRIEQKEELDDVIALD
- Sequence (Q9UBE0 whole entry partner): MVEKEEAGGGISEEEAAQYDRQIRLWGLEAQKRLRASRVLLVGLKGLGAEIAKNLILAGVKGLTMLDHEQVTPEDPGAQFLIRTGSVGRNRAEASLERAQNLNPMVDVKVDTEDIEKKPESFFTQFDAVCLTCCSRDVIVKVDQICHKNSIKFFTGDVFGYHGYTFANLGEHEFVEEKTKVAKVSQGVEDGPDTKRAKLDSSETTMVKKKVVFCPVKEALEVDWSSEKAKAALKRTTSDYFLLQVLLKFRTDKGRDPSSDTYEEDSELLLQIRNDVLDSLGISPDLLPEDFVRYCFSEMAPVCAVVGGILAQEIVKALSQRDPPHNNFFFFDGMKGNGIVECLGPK
- assayProtocol: SUMO activity (Table I, biological activities)
- Type: biochemical
- Parameters: key: + (less active); ++ (active); +++ (most active)
metric: SUMO

Use these answered entries as a reference point.
compound: COC(=O)C1=C(C(=O)NCCN(C)C)C2C=CC1(C(Cc1ccccc1)Nc1cc(F)cc(Cl)c1)O2 (stereo not shown) [Compound 227]
reported: +++
//
compound: COC(=O)C1=C(C(=O)Nc2ccc(C)c(F)c2)C2C=CC1(C(Cc1ccccc1)Oc1ccccc1)O2 (stereo not shown) [Compound 347]
reported: ++
//
compound: COC(=O)C1=C(C(N)=O)C2C=CC1(C(Cc1ccccc1)Nc1ccccc1)O2 (stereo not shown) [Compound 274]
reported: +++
//
compound: COC(=O)C1=C(C(=O)Nc2cccc(F)c2C)C2C=CC1(C(Cc1ccccc1)Nc1ccccc1)O2 (stereo not shown) [Compound 359]
reported: ++
//
compound: COC(=O)C1=C(C(=O)NCCN2CCCC2)C2C=CC1(C(Cc1ccc(Cl)cc1)Nc1cc(F)cc(F)c1)O2 (stereo not shown) [Compound 441]
reported: +++
//
compound: O=C(O)C1=C(C(=O)Nc2ccccc2)C2C=CC1(C(Cc1ccccc1)Nc1ccccc1)O2 (stereo not shown) [Compound 174]
reported: +

Could you now look at the following compound, please?
Input line: Lookup: SUMO / SUMO (Homo sapiens, UniProt Q9UBT2) / COC(=O)C1=C(C(=O)OC)C2(C(Cc3ccccc3C(F)(F)F)Nc3ccccc3)C=CC1O2 (stereo not shown) [Compound 658]
Output line: ++

Origin of values: patent US11578079B2
